# ASSAY_SYSTEM: complement C5a receptor 1 (C5aR1) (Homo sapiens, UniProt P21730)
# Construct: β-galactosidase fragment (PathHunter enzyme complementation); host or cells: CHO-K1 (PathHunter CHO-K1 C5aR1 β-arrestin cell line)
# Sequence (P21730 whole entry, the tested form may be a part): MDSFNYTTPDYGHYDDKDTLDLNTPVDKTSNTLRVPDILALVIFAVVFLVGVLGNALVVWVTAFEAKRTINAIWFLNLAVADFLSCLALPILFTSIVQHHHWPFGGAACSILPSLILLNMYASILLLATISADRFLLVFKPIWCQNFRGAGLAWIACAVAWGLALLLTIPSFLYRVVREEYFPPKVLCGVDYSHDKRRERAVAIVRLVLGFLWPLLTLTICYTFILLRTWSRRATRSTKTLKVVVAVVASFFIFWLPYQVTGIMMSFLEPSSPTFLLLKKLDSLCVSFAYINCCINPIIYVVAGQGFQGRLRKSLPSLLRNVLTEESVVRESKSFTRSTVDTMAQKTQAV
# TEST_NAME: β-arrestin recruitment via C5aR1 activation in live CHO-K1 cells (PathHunter), antagonist mode
# Format: cell-based
# COND: antagonist mode; recombinant hC5a (EC90) as competing natural agonist; live CHO-K1 cells; read-out: [Antagonist] B-arrestin2 recruitment: Average IC50
pIC50: −log10 of the molar value.
PROPERTY_MEASURED: pIC50

Entry Cc1cnc2c(C)c(C3CCN(c4c(C)cccc4F)CC3)c(=O)n(Cc3ncccc3C(F)(F)F)c2n1 , system complement C5a receptor 1 (C5aR1) (Homo sapiens, UniProt P21730): what pIC50 was measured?
5.30 to 6.30

Same lookup for Cc1cnc2cc([C@H]3CC[C@H](c4c(C)ccnc4F)CC3)c(=O)n(Cc3nccnc3C(F)F)c2n1 [146B] , please.
5.30 to 6.30

One more compound: Cc1cccc(F)c1[C@H]1CC[C@@H](c2cc3nccnc3n(Cc3ncccc3C(F)(F)F)c2=O)C1 [200C]
5.30 to 6.30

Another: Cc1cnc2cc(C3CCN(c4nccnc4C)CC3)c(=O)n(Cc3ncccc3C(F)(F)F)c2n1
5.30 to 6.30

Would you kindly repeat that for Cc1cccc(F)c1N1CCC(c2cc3nccnc3n(Cc3ncccc3OC(F)F)c2=O)CC1 ?
> 6.30

Next compound up: Cc1cnc2cc([C@H]3CC[C@H](c4c(F)ccc5c4cnn5C)CC3)c(=O)n(Cc3ncccc3C(F)(F)F)c2n1
4.00 to 5.30

Next record, please: Cc1ccc2cc(C3CCN(c4c(C)cccc4F)CC3)c(=O)n(Cc3ncccc3C(F)(F)F)c2n1
> 6.30

Request: CCc1cnc2cc([C@H]3CC[C@H](c4c(C)cccc4F)CC3)c(=O)n(Cc3ncccc3OC(F)(F)F)c2n1
> 6.30

Same lookup for Cc1cnc2cc([C@H]3CC[C@H](c4c(C)cccc4F)CC3)c(=O)n([C@H]3CCC(F)(F)c4nccnc43)c2n1 [174A] , please.
4.00 to 5.30

Moving on to Cc1ccc2cc([C@H]3CC[C@H](c4c(C)ccnc4F)CC3)c(=O)n(Cc3ncccc3OC(F)(F)F)c2n1
> 6.30

What do you get for Cc1ncc2cc(C3CCN(c4c(C)cccc4F)CC3)c(=O)n(Cc3nccnc3C(F)(F)F)c2n1 ?
5.30 to 6.30

# iterate: Cc1ccc2cc([C@H]3CC[C@H](c4c(C)ccnc4F)CC3)c(=O)n(Cc3ncccc3CC(F)(F)F)c2n1
> 6.30

How about this compound: Cc1cccc(F)c1N1CCN(c2c(C)c3nccnc3n(Cc3nccnc3C(F)(F)F)c2=O)CC1
5.30 to 6.30

Queued: Cc1cnc2cc([C@H]3CC[C@H](c4c(C)cccc4F)CC3)c(=O)n(Cc3nccnc3OC(F)F)c2n1 [168B]
> 6.30

Would you kindly repeat that for Cc1cnc2cc([C@H]3CC[C@H](c4c(C)cccc4F)CC3)c(=O)n(Cc3nccnc3C(F)(F)F)c2n1 [99b] ?
> 6.30
